# Tested on: SNB-75 CNS
# measurement_notes: NCI-60 one-dose screen, 48 h (100 = growth as untreated, 0 = no growth, -100 = all killed)
# protocol_conditions: 10 µM
Compounds without any hit were thinned out: in the full panel of roughly 83,000, 20% have a hit.

- compound: "Nc1ncnc2[nH]ncc12"
  unit_symbol: "%"
  growth: 33.3
- compound: "Cc1ccccc1C1N=C2Oc3ccccc3C=C2C(=O)N1 (configuration not stated)"
  unit_symbol: "%"
  growth: 21
- compound: "O=[N+]([O-])c1ccc(Cl)c(S(=O)(=O)O)c1"
  unit_symbol: "%"
  growth: 85.8
- compound: "O=C(O)/C=C/C(=O)NCc1ccccc1"
  unit_symbol: "%"
  growth: 81.9
- compound: "N#CC(=Nc1cccc(F)c1)C1=C(O)c2ccccc2C1=O"
  unit_symbol: "%"
  growth: 54.3
- compound: "Cc1cc(C)cc(NCCC#N)c1"
  unit_symbol: "%"
  growth: 94.6
- compound: "CCOC(=O)c1ccc(NC(=S)P(=O)(c2ccccc2)c2ccccc2)cc1"
  unit_symbol: "%"
  growth: 101

----------
# System: OVCAR-3 ovarian
# measurement_notes: NCI-60 one-dose screen, 48 h
# protocol_conditions: 10 µM
Compounds without any hit were thinned out: in the full panel of roughly 83,000, 20% have a hit. Calls of active or inactive are those of the source. How the source made its calls: active means growth percent below 10; inactive means the rest.
Labels: active, inactive

- compound: "C[N+](C)(C)C(=O)c1ccccc1"
  label_value: "inactive"
- compound: "Cc1c(O)cccc1O"
  label_value: "inactive"
- compound: "Nc1ccc(N=Nc2ccc(O)cc2)c(N)n1"
  label_value: "inactive"
- compound: "CC(C)(C)c1cc(O)c(C(C)(C)C)cc1O"
  label_value: "inactive"
- compound: "CC1OC(Oc2c(-c3ccc(O)c(O)c3)oc3cc(O)cc(O)c3c2=O)C(O)C(O)C1O (stereo unspecified)"
  label_value: "inactive"
- compound: "COC(=O)C(C)Oc1ccc(OC#N)cc1 (stereo unspecified)"
  label_value: "inactive"
- compound: "CC(=O)c1sc2c(c1OC(=O)c1ccc(Cl)cc1Cl)c(=O)n(-c1ccccc1)c(=S)n2-c1ccccc1"
  label_value: "inactive"
- compound: "Cc1cc(C(C)(C)C)cc(C)c1Br"
  label_value: "inactive"
- compound: "O=C1NC(=O)C2C(=O)NC(=O)C1C21CCc2ccccc21 (stereo unspecified)"
  label_value: "inactive"
- compound: "OCC1OC(OC2C(O)C(CO)OC2(CO)OC2OC(CO)C(O)C(O)C2O)C(O)C(O)C1O (stereo unspecified)"
  label_value: "inactive"
- compound: "Cc1cc(C(O)(c2ccc(Nc3ccccc3)cc2)c2ccc(Nc3ccc(S(=O)(=O)O)cc3)cc2)ccc1N (stereo unspecified)"
  label_value: "active"

----------
# System: NCI-H322M lung
# measurement_notes: NCI-60 one-dose screen, 48 h (100 = growth as untreated, 0 = no growth, -100 = all killed)
# protocol_conditions: 10 µM
The panel holds about 83,000 compounds, 20% with a hit somewhere; the sample as a whole holds those more often. Active and inactive are the calls of the source. Rule for the calls: active = growth percent below 10; inactive = the rest.
growth listing for selected compounds.
test_readout: growth

- smiles: "CCOc1ccc(I)cc1"
  test_readout: "growth"
  result: "120% (inactive)"
- smiles: "O=C(CCNNC(=O)c1ccncc1)NCc1ccccc1"
  test_readout: "growth"
  result: "110% (inactive)"
- smiles: "COC(=O)/C=C1\\Sc2cc(F)ccc2NC1=O"
  test_readout: "growth"
  result: "100% (inactive)"
- smiles: "CC(C)(C)n1nc(C2CC2)c(Br)c1NC(=O)c1ccccc1F"
  test_readout: "growth"
  result: "98.3% (inactive)"
- smiles: "CCOC(=O)CCCS(C)(=O)=O"
  test_readout: "growth"
  result: "120% (inactive)"
- smiles: "O=S(=O)(O)c1cc(O)c2c(N=Cc3ccccc3O)c(S(=O)(=O)O)ccc2c1"
  test_readout: "growth"
  result: "93.7% (inactive)"
- smiles: "COC(=O)Nc1cccc(Cl)c1OC"
  test_readout: "growth"
  result: "107% (inactive)"
- smiles: "Cc1cc(/C=C/c2ccc3cc(N(C)C)ccc3[n+]2C)c(C)n1-c1ccccc1"
  test_readout: "growth"
  result: "2.15% (active)"
- smiles: "NC(=S)N/N=C/c1ccc(N)cc1"
  test_readout: "growth"
  result: "99.4% (inactive)"
- smiles: "O=c1cc(-c2ccccc2)nc2cc(-c3ccco3)[nH]n12"
  test_readout: "growth"
  result: "95.6% (inactive)"
- smiles: "CCCCC/C=N/Nc1nc(C)cc(=O)[nH]1"
  test_readout: "growth"
  result: "100% (inactive)"
- smiles: "c1ccc2c(c1)Sc1ccccc1S2"
  test_readout: "growth"
  result: "92.5% (inactive)"
- smiles: "CC1(C)Nc2cccc3c(N=Nc4ccc(N=Nc5ccccc5)c5ccccc45)ccc(c23)N1"
  test_readout: "growth"
  result: "91.4% (inactive)"
- smiles: "CC(C)NC(=O)OCc1c(COC(=O)NC(C)C)c(-c2ccc(Cl)c(Cl)c2)n2c1SCC2"
  test_readout: "growth"
  result: "51.4% (inactive)"
- smiles: "Cc1cc(C(C)(C)C)cc(C)c1Br"
  test_readout: "growth"
  result: "121% (inactive)"

Measured values drawn from PubChem BioAssay (NCI) for this set.
